The following compounds are shown together with reported inhibition of growth at 25 µg/mL values.
Tested on: MCF7
experiment-notes: Growth inhibition of human MCF7 cells at 25 ug/ml after 24 hrs by MTT colorimetric assay
Format: functional
condition-info: MCF7, 24 h, read-out: GI
Quick reminder: number only, in %, skip the unit.

Example entries and their recorded answers appear below.
INSERT INTO measurements (compound, experimental_target, recorded_measurement) VALUES
  ('O=C1OC[C@H](Cc2ccc3c(c2)OCO3)[C@H]1[C@@H](O)c1ccccc1Cl', 'MCF7', 8.5),
  ('COc1cc(C(O)[C@H]2C(=O)OC[C@@H]2Cc2ccc3c(c2)OCO3)cc(OC)c1OC (mixture of isomers)', 'MCF7', 5.2),
  ('O=C1OC[C@H](Cc2ccc3c(c2)OCO3)[C@H]1C(O)c1ccccc1[N+](=O)[O-] (mixture of isomers)', 'MCF7', 21.9);

If you can, please state the reported inhibition of growth at 25 µg/mL value of O=C1OC[C@H](Cc2ccc3c(c2)OCO3)[C@H]1Cc1ccccc1 .
17
